assay: Biodistribution of 18F-labeled SST2 ligands in AR42J tumor-bearing mice; type: in vivo; settings: female, CD1 nu/nu, mouse, stomach, iv, total radioactivity, 1 h post injection, tail vein; read-out: Stomach % ID/g ± SD
Readout Label: tissue uptake at 1 h (%ID/g)
Give bare numbers, in %ID/g.

| Compound | Readout Number |
| --- | --- |
| C[C@@H](O)[C@H](NC(=O)C1CSSCC(NC(=O)C(Cc2ccccc2)NC(=O)CNC(=O)CNC(=O)CNC(=O)C(CC(=O)O)NC(=O)[C@@H](CC(=O)O)NC(=O)C(CCCNC(N)=O)NC(=O)[C@@H](CNC(=O)C[N+](C)(C)Cc2ccc([Si](F)(C(C)(C)C)C(C)(C)C)cc2)NC(=O)CN2CCN(CC(=O)O)CCN(CC(=O)O)CCN(CC(=O)O)CC2)C(=O)N[C@@H](Cc2ccc(O)cc2)C(=O)NC(Cc2c[nH]c3ccccc23)C(=O)N[C@@H](CCCCN)C(=O)N[C@@H]([C@@H](C)O)C(=O)N1)C(=O)O (some centres unmarked) (natGa complex, metal not drawn) [[Ga]46] | 6.51 |

Please look at the following compound next.
// tissue uptake at 1 h lookup, compound = C[C@@H](O)[C@H](NC(=O)C1CSSCC(NC(=O)C(Cc2ccccc2)NC(=O)CNC(=O)CNC(=O)CNC(=O)C(CC(=O)O)NC(=O)[C@@H](CC(=O)O)NC(=O)C(CNC(=O)CN2CCN(CC(=O)O)CCN(CC(=O)O)CCN(CC(=O)O)CC2)NC(=O)C[N+](C)(C)Cc2ccc([Si](F)(C(C)(C)C)C(C)(C)C)cc2)C(=O)N[C@@H](Cc2ccc(O)cc2)C(=O)NC(Cc2c[nH]c3ccccc23)C(=O)N[C@@H](CCCCN)C(=O)N[C@@H]([C@@H](C)O)C(=O)N1)C(=O)O (some centres unmarked) (natGa complex, metal not drawn) [[Ga]50] , result: 9.54

====

test: Biodistribution of 18F-labeled SST2 ligands in AR42J tumor-bearing mice; type: in vivo; conditions: female, CD1 nu/nu, mouse, adrenal glands, iv, total radioactivity, 1 h post injection, tail vein; read-out: Adrenal glands % ID/g ± SD
Readout Label: tissue uptake at 1 h (%ID/g)
One number for each entry, in %ID/g.

| Compound | Readout Units | Readout Number |
| --- | --- | --- |
| C[C@@H](O)[C@H](NC(=O)C1CSSCC(NC(=O)C(Cc2ccccc2)NC(=O)CNC(=O)CNC(=O)[C@@H](CC(=O)O)NC(=O)C(CC(=O)O)NC(=O)[C@@H](CNC(=O)CN2CCN(CC(=O)O)CCN(CC(=O)O)CCN(CC(=O)O)CC2)NC(=O)C(CN)NC(=O)c2ccc([Si](F)(C(C)(C)C)C(C)(C)C)cc2)C(=O)N[C@@H](Cc2ccc(O)cc2)C(=O)NC(Cc2c[nH]c3ccccc23)C(=O)N[C@@H](CCCCN)C(=O)N[C@@H]([C@@H](C)O)C(=O)N1)C(=O)O (some centres unmarked) (natGa complex, metal not drawn) [[Ga]19] | %ID/g | 2.56 |
| C[C@@H](O)[C@H](NC(=O)C1CSSCC(NC(=O)C(Cc2ccccc2)NC(=O)CNC(=O)CNC(=O)CNC(=O)C(CC(=O)O)NC(=O)[C@@H](CC(=O)O)NC(=O)C(CNC(=O)CN2CCN(CC(=O)O)CCN(CC(=O)O)CCN(CC(=O)O)CC2)NC(=O)C[N+](C)(C)Cc2ccc([Si](F)(C(C)(C)C)C(C)(C)C)cc2)C(=O)N[C@@H](Cc2ccc(O)cc2)C(=O)NC(Cc2c[nH]c3ccccc23)C(=O)N[C@@H](CCCCN)C(=O)N[C@@H]([C@@H](C)O)C(=O)N1)C(=O)O (some centres unmarked) (natGa complex, metal not drawn) [[Ga]50] | %ID/g | 2.39 |
| C[C@@H](O)[C@H](NC(=O)C1CSSCC(NC(=O)C(Cc2ccccc2)NC(=O)CNC(=O)CNC(=O)CNC(=O)C(CC(=O)O)NC(=O)[C@@H](CC(=O)O)NC(=O)C(CCCCN)NC(=O)[C@@H](CNC(=O)C[N+](C)(C)Cc2ccc([Si](F)(C(C)(C)C)C(C)(C)C)cc2)NC(=O)CN2CCN(CC(=O)O)CCN(CC(=O)O)CCN(CC(=O)O)CC2)C(=O)N[C@@H](Cc2ccc(O)cc2)C(=O)NC(Cc2c[nH]c3ccccc23)C(=O)N[C@@H](CCCCN)C(=O)N[C@@H]([C@@H](C)O)C(=O)N1)C(=O)O (some centres unmarked) (natGa complex, metal not drawn) [[Ga]45] | %ID/g | 1.54 |
| C[C@@H](O)[C@H](NC(=O)C1CSSCC(NC(=O)C(Cc2ccccc2)NC(=O)CNC(=O)CNC(=O)CNC(=O)C(CC(=O)O)NC(=O)[C@@H](CC(=O)O)NC(=O)C(CCCNC(N)=O)NC(=O)[C@@H](CNC(=O)C[N+](C)(C)Cc2ccc([Si](F)(C(C)(C)C)C(C)(C)C)cc2)NC(=O)CN2CCN(CC(=O)O)CCN(CC(=O)O)CCN(CC(=O)O)CC2)C(=O)N[C@@H](Cc2ccc(O)cc2)C(=O)NC(Cc2c[nH]c3ccccc23)C(=O)N[C@@H](CCCCN)C(=O)N[C@@H]([C@@H](C)O)C(=O)N1)C(=O)O (some centres unmarked) (natGa complex, metal not drawn) [[Ga]46] | %ID/g | 1.71 |

Please look at the following compound next.
// tissue uptake at 1 h lookup, compound = C[C@@H](O)[C@H](NC(=O)C1CSSCC(NC(=O)C(Cc2ccccc2)NC(=O)CNC(=O)CNC(=O)[C@@H](CC(=O)O)NC(=O)C(CC(=O)O)NC(=O)[C@@H](CNC(=O)CN2CCN(CC(=O)O)CCN(CC(=O)O)CCN(CC(=O)O)CC2)NC(=O)C[N+](C)(C)Cc2ccc([Si](F)(C(C)(C)C)C(C)(C)C)cc2)C(=O)N[C@@H](Cc2ccc(O)cc2)C(=O)NC(Cc2c[nH]c3ccccc23)C(=O)N[C@@H](CCCCN)C(=O)N[C@@H]([C@@H](C)O)C(=O)N1)C(=O)O (some centres unmarked) (natGa complex, metal not drawn) [[Ga]24] , result: 1.52
